Origin of measurements: the supplement of paper PMC12042874

Assay: amyloid nucleation score (Sup35N fusion, yeast selection) (log enrichment); library NNK2; higher = more nucleation; inactive = no reads after selection;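 also: zero at mode of non-aggregating sequences after 7 days selection at 30°C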
Entries and their measured amyloid nucleation score follow.
Reply briefly: the number, and no unit.

Consider the reported amyloid nucleation score for these substances:
ILCYMFVYYAYA ... 0.016
HEAYLPRLNDVTTSPSPCPY ... 0.487
GIHLVFGFMEWRVMSTLKVS ... -0.584
CIQTSSREVSFRSIATDGST ... 4.27

Task: Item under review: IYLYPSYWCCFNRL . Reported amyloid nucleation score?
Result: 9.61

Task: Item under review: KLWETRACFVTCR . Reported amyloid nucleation score?
Result: 0.362

Task: Item under review: SVNMFKFRTDSSFCDLTLCH . Reported amyloid nucleation score?
Result: 0.423

Task: Item under review: YRMCLLRYT . Reported amyloid nucleation score?
Result: -0.936

Task: Item under review: CIFWVRCKFYGNLNFGCLYD . Reported amyloid nucleation score?
Result: 7

Task: Item under review: TKPNVW . Reported amyloid nucleation score?
Result: -0.067

Task: Item under review: RPNFFVLNSNMNNYVQARVP . Reported amyloid nucleation score?
Result: 4.59

Task: Item under review: VSISKVFAAFVFLEPANTRI . Reported amyloid nucleation score?
Result: 5.36

Task: Item under review: WLGTRWRRGWGRLLKREGIL . Reported amyloid nucleation score?
Result: 1.79

====

Experiment: amyloid nucleation score (Sup35N fusion, yeast selection) (log enrichment); library NNK2; higher = more nucleation; inactive = no reads after selection
Entries and their measured amyloid nucleation score follow.
Reply briefly: the number, and no unit.

Consider the reported amyloid nucleation score for these substances:
CCVVIKN ... 6.08
YVDVGC ... 0.513
QSGLIHY ... -0.894
YPNLFS ... 0.522
PGTKLLSSVNAQRDSLKKGG ... -0.478

Task: Item under review: TYFAEIMNTPLRPSARHEAR . Reported amyloid nucleation score?
Result: 1.72

Task: Item under review: WAWVYGCDGYLIGSSRLANG . Reported amyloid nucleation score?
Result: 0.368

Task: Item under review: IAVNMCSFFVSDLHPMRWGY . Reported amyloid nucleation score?
Result: 7.5

Task: Item under review: ACNWLESFIKCFICVWYRDK . Reported amyloid nucleation score?
Result: 7.73

Task: Item under review: YHNCNQHSWYRMRCFG . Reported amyloid nucleation score?
Result: -0.417

====

Assay: amyloid nucleation score (Sup35N fusion, yeast selection) (log enrichment); library NNK1; higher = more nucleation; inactive = no reads after selection
The threshold is inclusive: amyloid nucleation score of exactly 1 counts as Yes; values below receive No.

HSRLLASYS ... Yes

Task: amyloid nucleation score >= 1 for HNHSTYFHYRFGVSLVLTSR ?
Result: Yes

Task: amyloid nucleation score >= 1 for YVLIVNWIRSK ?
Result: Yes

Task: amyloid nucleation score >= 1 for DSYCLRMPIGSCIDWWGKGV ?
Result: No

Task: amyloid nucleation score >= 1 for NCASLLGRFSDDLIDHLSVL ?
Result: Yes

Task: amyloid nucleation score >= 1 for HMRDLEDPQWSDY ?
Result: No

Task: amyloid nucleation score >= 1 for LIYAREDGEALWEAIRPTEK ?
Result: No

Task: amyloid nucleation score >= 1 for QLTSVSIFWYPF ?
Result: No

Task: amyloid nucleation score >= 1 for LCKFYPAFTGTTCTNLLSVW ?
Result: No

Task: amyloid nucleation score >= 1 for LYLEARGGRVSYHQLFFGER ?
Result: Yes

Task: amyloid nucleation score >= 1 for WRFMRFSSGRFNIGEYI ?
Result: No

Task: amyloid nucleation score >= 1 for SLNVVLFCRPTGVCSHGIGW ?
Result: Yes

Task: amyloid nucleation score >= 1 for LRGFESTRETVLGSMQQWCL ?
Result: Yes

Task: amyloid nucleation score >= 1 for GAIFYGVCCIRPNWNVVSTS ?
Result: Yes

Task: amyloid nucleation score >= 1 for MKYKSWTSGSGSSVSRRMKL ?
Result: No

Task: amyloid nucleation score >= 1 for WDSLVLGKLYKLIFDQASPV ?
Result: No
